# test.description: Therapeutic index, ratio of TC50 for human CEM-SS cells infected with HIV1 3B to EC50 for HIV1 3B infected in human CEM-SS cells
# Format: cell-based
# condition.description: read-out: TI
quantity.name: selectivity ratio

{"substance": "H-VFQFLGRIIHHVGNFVHGFSHVF-OH [Clavanin B]", "value.qualifier": ">", "measurement": 5.18}
{"substance": "H-GLRRLLGRLLRRLGRLLLR-OH", "value.qualifier": "=", "measurement": 5.8}
{"substance": "H-GWLKKIESIIDAF-OH", "value.qualifier": ">", "measurement": 2.2}
{"substance": "H-GFLDIIEKIAKSW-OH", "value.qualifier": ">", "measurement": 6.3}
{"substance": "H-SWKSMAKKLKEYMEKLKQRA-OH [Latarcin 3a]", "value.qualifier": ">", "measurement": 1.23}
{"substance": "H-ILGPVLGLVSRTLRRVLGIL-OH", "value.qualifier": "=", "measurement": 3.9}
{"substance": "H-GFKRIVQRIKDFLRNLV-NH2", "value.qualifier": "=", "measurement": 14.2}

----------
# test.description: Therapeutic index, ratio of TC50 for human CEM-SS cells infected with HIV1 3B to EC50 for HIV1 3B infected in human CEM-SS cells
# Assay type: cell-based
# condition.description: read-out: TI
quantity.name: selectivity ratio

{"chemical.structure": "CC[C@H](C)[C@H](NC(=O)[C@H](CC(C)C)NC(=O)[C@@H]1CCCN1C(=O)[C@H](Cc1ccccc1)NC(=O)[C@H](CC(C)C)NC(=O)[C@@H](N)Cc1ccccc1)C(=O)N[C@H](C(=O)N[C@@H](CO)C(=O)N[C@@H](Cc1ccccc1)C(=O)N[C@@H](CC(C)C)C(=O)N[C@@H](CO)C(=O)N[C@@H](CCCCN)C(=O)N[C@H](C(=O)N[C@@H](CC(C)C)C(=O)O)C(C)C)[C@H](C)O", "measurement": 2.07}

----------
# test.description: Cytotoxicity against human CEM-SS cells infected with HIV1 3B after 6 days by XTT assay
# Assay type: cell-based
# condition.description: read-out: TC50
Where a SMILES comes first, the peptide text is derived from it. [ ]: non-standard residue; d: D form. aThr = C[C@H](O)[C@H](N)C(=O)O
quantity.name: CC50 at 144 h

{"compound": "CC[C@H](C)[C@H](NC(=O)[C@H](CC(C)C)NC(=O)[C@H](C)NC(=O)[C@@H]1CCCN1C(=O)[C@H](CCCNC(=N)N)NC(=O)[C@@H](N)Cc1ccccc1)C(=O)N[C@H](C(=O)N[C@@H](CCCNC(=N)N)C(=O)N[C@H](C(=O)N[C@@H](CCCCN)C(=O)NCC(=O)N[C@H](C(=O)N[C@@H](CCCNC(=N)N)C(=O)N[C@@H](CC(C)C)C(=O)O)[C@H](C)O)[C@H](C)O)C(C)C [Hyposin-5] (H-FRPALIVR[aThr]KG[aThr]RL-OH)", "measurement": "> 61.4 µM"}
{"compound": "CC[C@H](C)[C@H](NC(=O)[C@H](CO)NC(=O)[C@H](CC(C)C)NC(=O)[C@H](Cc1ccccc1)NC(=O)CN)C(=O)N[C@@H](CC(C)C)C(=O)N[C@@H](CCCCN)C(=O)N[C@@H](CCCCN)C(=O)N[C@H](C(=O)N[C@@H](CC(C)C)C(=O)N1CCC[C@H]1C(=O)N[C@@H](CCCCN)C(=O)N[C@H](C(=O)N[C@@H](CCSC)C(=O)N[C@@H](C)C(=O)N[C@@H](Cc1cnc[nH]1)C(=O)N[C@@H](CCSC)C(=O)N[C@@H](CCCCN)C(N)=O)C(C)C)C(C)C", "measurement": "7.75 µM"}
{"compound": "CC[C@H](C)[C@H](NC(=O)[C@H](CC(C)C)NC(=O)[C@@H]1CCCN1C(=O)[C@H](Cc1ccccc1)NC(=O)[C@H](CC(C)C)NC(=O)[C@@H](N)Cc1ccccc1)C(=O)N[C@H](C(=O)N[C@@H](CO)C(=O)N[C@@H](Cc1ccccc1)C(=O)N[C@@H](CC(C)C)C(=O)N[C@@H](CO)C(=O)N[C@@H](CCCCN)C(=O)N[C@H](C(=O)N[C@@H](CC(C)C)C(=O)O)C(C)C)[C@H](C)O", "measurement": "34.6 µM"}
{"compound": "Cc1cn([C@H]2C[C@H](N=[N+]=[N-])[C@@H](CO)O2)c(=O)[nH]c1=O", "measurement": "> 0.5 µM"}

----------
# test.description: Therapeutic index, ratio of TC50 for human CEM-SS cells infected with HIV1 3B to EC50 for HIV1 3B infected in human CEM-SS cells
# Assay type: cell-based
# condition.description: read-out: TI
Give Yes when the value for selectivity ratio is at least 4. Give No when it is less.

{"substance": "H-GLRSRIWLWVLLMIWQESNRFKRM-OH", "group.label": "Yes"}
{"substance": "H-GLFDIIKKIAESW-OH", "group.label": "No"}
{"substance": "H-GIWDTIKSMGKVFAGKILQNL-NH2 [Brevinin-2]", "group.label": "Yes"}
{"substance": "H-GFKDLLKGAAKALVKTVLF-NH2 [Ascaphin-8]", "group.label": "No"}
{"substance": "H-IKWKKLLRAAKRIL-NH2", "group.label": "No"}
{"substance": "H-LLKELWTKIKGAGKAVLGKIKGLL-OH [Ponericin L2]", "group.label": "Yes"}
{"substance": "H-GLLGLLGSVVSHVVPAIVGHF-NH2 [Maculatin 1.3]", "group.label": "No"}
{"substance": "H-IWLTALKFLGKHAAKHLAKQQLSKL-OH [Lycotoxin I]", "group.label": "No"}
{"substance": "H-SLSRFLRFLKIVYRRAF-NH2", "group.label": "Yes"}
{"substance": "H-GLKKLLGKLLKKLGKLLLK-OH", "group.label": "No"}
{"substance": "H-GWFDVVKHIAKRF-NH2", "group.label": "No"}
{"substance": "H-GWFDIIKKIASEL-OH", "group.label": "No"}

----------
# test.description: Cytotoxicity against human CEM-SS cells infected with HIV1 3B after 6 days by XTT assay
# Assay type: cell-based
# condition.description: read-out: TC50

{"substance": "H-GNNRPVYIPQPRPPHPRI-OH [Apidaecin IA]", "CC50 at 144 h": "> 47.4 µM"}
{"substance": "H-VDKPDYRPRPRPPNM-OH [Metalnikowin I]", "CC50 at 144 h": "> 54.4 µM"}
{"substance": "H-RQRVEELSKFSKKGAAARRRK-OH [Misgurin]", "CC50 at 144 h": "> 40 µM"}
{"substance": "H-GLWEKIDKFASII-OH", "CC50 at 144 h": "> 65.8 µM"}
{"substance": "H-GLRSKIWLWVLLMIWQESNKFKKM-OH", "CC50 at 144 h": "> 32.9 µM"}
{"substance": "H-GLNTLKKVFQGLHEAIKLINNHVQ-OH", "CC50 at 144 h": "> 36.8 µM"}
{"substance": "H-GFLDIIEKIAKSW-OH", "CC50 at 144 h": "> 65.8 µM"}
{"substance": "H-GAWKNFWSSLRKGFYDGEAGRAIRR-OH", "CC50 at 144 h": "> 34.1 µM"}
{"substance": "H-ILGPVLGLVSDTLDDVLGIL-OH", "CC50 at 144 h": "> 49.4 µM"}
{"substance": "H-GKPRPYSPRPTSHPRPIRV-OH [DROSOCIN]", "CC50 at 144 h": "> 45.5 µM"}
{"substance": "H-GLADFLNKAVGKVVDFVKS-NH2 [Desertcolin 1]", "CC50 at 144 h": "> 49.9 µM"}
{"substance": "H-GIIDIAKKLFESW-OH", "CC50 at 144 h": "> 65.8 µM"}
{"substance": "H-GLRSRIWLWVLLMIWQESNRFKRM-OH", "CC50 at 144 h": "> 32.1 µM"}
{"substance": "H-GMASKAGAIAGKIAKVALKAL-NH2", "CC50 at 144 h": "> 50.8 µM"}
{"substance": "H-GFGKAFHSVSNFAKKHKTA-NH2 [STYELIN A]", "CC50 at 144 h": "> 48.5 µM"}
{"substance": "H-NLVSGLIEARKYLEQLHRKLKNRKV-OH", "CC50 at 144 h": "> 33.3 µM"}
{"substance": "H-GIWSDLAEIIKKF-OH", "CC50 at 144 h": "> 65.8 µM"}
{"substance": "H-GIFDKLAKEISIW-OH", "CC50 at 144 h": "> 65.8 µM"}
{"substance": "H-GWLKKIESIIDAF-OH", "CC50 at 144 h": "> 65.8 µM"}
{"substance": "H-SWKSMAKKLKEYMEKLKQRA-OH [Latarcin 3a]", "CC50 at 144 h": "> 40.3 µM"}
{"substance": "H-KGRGKQGGKVRAKAKTRSS-OH [Parasin I]", "CC50 at 144 h": "> 50 µM"}
{"substance": "H-INLKAIAALAKKLL-OH", "CC50 at 144 h": "> 67.6 µM"}

Values from ChEMBL document CHEMBL1240406
